# System: UniProtKB Q06187
# Sequence (Q06187 whole entry): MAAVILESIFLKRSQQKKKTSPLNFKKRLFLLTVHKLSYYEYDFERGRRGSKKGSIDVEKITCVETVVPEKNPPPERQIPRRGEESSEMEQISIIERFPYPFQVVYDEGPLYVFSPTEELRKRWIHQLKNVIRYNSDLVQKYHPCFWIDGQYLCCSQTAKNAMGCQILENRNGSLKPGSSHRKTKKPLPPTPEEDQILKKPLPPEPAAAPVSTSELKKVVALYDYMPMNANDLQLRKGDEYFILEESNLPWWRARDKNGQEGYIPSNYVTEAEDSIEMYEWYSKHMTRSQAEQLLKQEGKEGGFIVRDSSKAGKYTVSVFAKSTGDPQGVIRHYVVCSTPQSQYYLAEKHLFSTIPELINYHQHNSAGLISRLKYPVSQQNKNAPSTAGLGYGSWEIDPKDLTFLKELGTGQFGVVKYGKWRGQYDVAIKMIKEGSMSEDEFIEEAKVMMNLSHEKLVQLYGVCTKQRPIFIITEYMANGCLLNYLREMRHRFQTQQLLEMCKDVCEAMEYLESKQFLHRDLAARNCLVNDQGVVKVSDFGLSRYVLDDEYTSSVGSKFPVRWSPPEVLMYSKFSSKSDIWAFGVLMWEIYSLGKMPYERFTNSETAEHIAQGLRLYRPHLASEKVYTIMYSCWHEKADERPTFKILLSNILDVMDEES
# Test protocol: BTK degradation in OCI-LY10 cells (Total-BTK HTRF kit)
# Assay type: cell-based
# Condition context: OCI-Ly10, OCI-LY10 cells, 24 (or 6) h incubation; maximum degradation rate
Value type: Dmax

## Input Kindly state the measured Dmax obtained for CN1CCN([C@@H]2CCCN(c3cnc(C(N)=O)c(Nc4ccc(C5CCN(CC6CCN(c7ccc8c(C9CCC(=O)NC9=O)noc8c7)CC6)CC5)cc4)n3)C2)C1=O (stereo partly shown) with UniProtKB Q06187.
## Output 99%

## Input Also, CN1CCN([C@@H]2CCCN(c3cnc(C(N)=O)c(Nc4ccc(C5C[C@@H]6CN(CC7Cc8ccc9c(C%10CCC(=O)NC%10=O)noc9c8C7)C[C@@H]6C5)cc4)n3)C2)C1=O (stereo partly shown) please.
## Output > 90%

## Input Also, CN1CCN([C@@H]2CCCN(c3cnc(C(N)=O)c(Nc4ccc(C5CCN(C[C@H]6CCN(c7cc8onc(C9CCC(=O)NC9=O)c8cc7F)C6)CC5)cc4)n3)C2)C1=O (stereo partly shown) please.
## Output 99%

## Input Also, CN1CCN([C@@H]2CCCN(c3cnc(C(N)=O)c(Nc4ccc(C5CCC6(CC5)CC(N5CCc7c(ccc8c(C9CCC(=O)NC9=O)noc78)C5)C6)cc4)n3)C2)C1=O (stereo partly shown) please.
## Output > 90%

## Input Also, NC(=O)c1ncc(N2CCCCC2)nc1Nc1ccc(C2CCN(CC3CN(c4ccc5c(C6CCC(=O)NC6=O)noc5c4)C3)CC2)cc1 (stereo not shown) please.
## Output > 90%

## Input Also, CN1CCN([C@@H]2CCCN(c3cnc(C(N)=O)c(Nc4ccc(C5CCN(CC6Cc7ccc8c(C9CCC(=O)NC9=O)noc8c7C6)CC5)cc4)n3)C2)C1=O (stereo partly shown) please.
## Output > 90%

## Input Also, CN1CCN([C@@H]2CCCN(c3cnc(C(N)=O)c(Nc4ccc5c(c4)OC[C@H]4CN(CC6Cc7ccc8c(C9CCC(=O)NC9=O)noc8c7C6)CCN54)n3)C2)C1=O (stereo partly shown) please.
## Output > 90%

---

# Test protocol: In vitro liver microsomal stability, mouse
# Condition context: 0.5 mg/mL microsomes, NADPH, 37° C., 1 h
Value type: Mouse liver microsome Residuals at 60 min (%)
Respond numerically; units are % and should not be typed.

## Input Name the recorded Mouse liver microsome Residuals at 60 min for NC(=O)c1ncc(N2CCCCC2)nc1Nc1ccc(C2CCN(C3Cc4ccc5c(C6CCC(=O)NC6=O)noc5c4C3)CC2)cc1 (stereo not drawn) .
## Output 85.0

## Input Also, CN1CCN([C@@H]2CCCN(c3cnc(C(N)=O)c(Nc4ccc(C5CCC(N6Cc7ccc8c(C9CCC(=O)NC9=O)noc8c7C6)CC5)cc4)n3)C2)C1=O (stereo partly drawn) please.
## Output 71.0

## Input Also, CN1CCN([C@@H]2CCCN(c3cnc(C(N)=O)c(Nc4ccc(C5CCN(CC6CCN(c7ccc8c(C9CCC(=O)NC9=O)noc8c7)CC6)CC5)cc4)n3)C2)C1=O (stereo partly drawn) please.
## Output 54.7

## Input Also, CN1CCN([C@@H]2CCCN(c3cnc(C(N)=O)c(Nc4ccc(C5CCN(C6CN(c7cc8onc(C9CCC(=O)NC9=O)c8c8ccccc78)C6)CC5)cc4)n3)C2)C1=O (stereo partly drawn) please.
## Output 72.0

## Input Also, CN1CCN([C@@H]2CCCN(c3cnc(C(N)=O)c(Nc4ccc(C5CCN(C[C@@H]6CCC(c7cc8[nH]ccc8c8c(C9CCC(=O)NC9=O)noc78)C6)CC5)cc4)n3)C2)C1=O (stereo partly drawn) please.
## Output 62.41

## Input Also, CN1CCN([C@@H]2CCCN(c3cnc(C(N)=O)c(Nc4ccc(C5CCC6(CC5)CCN(CC5Cc7ccc8c(C9CCC(=O)NC9=O)noc8c7C5)CC6)cc4)n3)C2)C1=O (stereo partly drawn) please.
## Output 63.1

## Input Also, CN1CCN([C@@H]2CCCN(c3cnc(C(N)=O)c(Nc4ccc(C5CCN(C[C@@H]6CCC(c7ccc8c(C9CCC(=O)NC9=O)noc8c7)C6)CC5)cc4)n3)C2)C1=O (stereo partly drawn) please.
## Output 42.7

## Input Also, CN1CCN([C@@H]2CCCN(c3cnc(C(N)=O)c(Nc4ccc(C5CCN(C[C@@H]6CCC(c7cc8onc(C9CCC(=O)NC9=O)c8c8cc[nH]c78)C6)CC5)cc4)n3)C2)C1=O (stereo partly drawn) please.
## Output 56.41

## Input Also, CN1CCN([C@@H]2CCCN(c3cnc(C(N)=O)c(Nc4ccc(C5CCN(C6CN(c7ccc8c(C9CCC(=O)NC9=O)noc8c7)C6)CC5)cc4)n3)C2)C1=O (stereo partly drawn) please.
## Output 65.4

## Input Also, NC(=O)c1ncc(N2CCCCC2)nc1Nc1ccc(C2CCN(CC3CN(c4ccc5c(C6CCC(=O)NC6=O)noc5c4)C3)CC2)cc1 (stereo not drawn) please.
## Output 75.0

## Input Also, CN1CCN([C@@H]2CCCN(c3cnc(C(N)=O)c(Nc4ccc(C5CCN(CC6Cc7ccc8c(C9CCC(=O)NC9=O)noc8c7C6)CC5)cc4)n3)C2)C1=O (stereo partly drawn) please.
## Output 54.63

## Input Also, CN1CCN([C@@H]2CCCN(c3cnc(C(N)=O)c(Nc4ccc(C5CCC6(CC5)CC(N5CCc7ccc8c(C9CCC(=O)NC9=O)noc8c7CC5)C6)cc4)n3)C2)C1=O (stereo partly drawn) please.
## Output 47.0
